Attribution: PubChem BioAssay AID1508612

ASSAY_PROTOCOL: passive permeability, PAMPA, ADME assay (AID 1508612)
CONDITION_LABEL: pH 7.4, 30.0 min, 50.0 µM
MEASURED_METRIC: Papp (×10⁻⁶ cm/s)
Give the value, in units of ×10⁻⁶ cm/s, as a plain number.

# count of solved cases: 2
CPD_SMILES: Cc1cc(C)nc(NC(=S)N2CCN(c3cccc(C(F)(F)F)n3)CC2)c1
MEASURED_METRIC: Papp
NUMERIC_RESULT: 589
--
CPD_SMILES: CC(=O)c1c(C)[nH]c(C(=O)Nc2cccc(S(=O)(=O)N3CCOCC3)c2)c1C
MEASURED_METRIC: Papp
NUMERIC_RESULT: 475

## Input # query: Papp of entry Cc1cc(NS(=O)(=O)c2ccc(NC(=O)c3oc4ccccc4c3C)cc2)nc(C)n1
## Output 282

## Input Dear colleague, I am looking for the recorded Papp of the following compound: O=C(Cc1ccc(Cl)c(Cl)c1)Nc1ccc([S+](=O)([O-])Nc2ccccn2)cc1
## Output 651
